Please respond with reported pIC50 for every item in the list.
Biological target: T1, human LAG3 expressed on HEK293 cells (human, UniProt P18627 23-525)
T1 construct: also called hLAG3; HEK293/hLAG3
T1 sequence: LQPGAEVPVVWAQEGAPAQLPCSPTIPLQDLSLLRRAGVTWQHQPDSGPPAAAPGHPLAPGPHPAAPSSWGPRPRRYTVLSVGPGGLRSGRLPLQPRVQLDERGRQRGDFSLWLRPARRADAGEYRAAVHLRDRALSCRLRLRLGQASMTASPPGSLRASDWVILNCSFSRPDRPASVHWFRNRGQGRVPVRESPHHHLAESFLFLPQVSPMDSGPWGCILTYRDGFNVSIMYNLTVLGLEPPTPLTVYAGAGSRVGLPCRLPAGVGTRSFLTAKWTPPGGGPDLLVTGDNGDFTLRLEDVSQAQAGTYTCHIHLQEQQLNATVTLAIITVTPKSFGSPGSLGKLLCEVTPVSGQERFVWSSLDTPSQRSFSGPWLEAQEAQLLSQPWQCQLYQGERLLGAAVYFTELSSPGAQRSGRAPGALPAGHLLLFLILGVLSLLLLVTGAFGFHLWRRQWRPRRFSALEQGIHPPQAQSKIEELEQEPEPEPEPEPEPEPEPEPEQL
Assay: cell adherence assay, blocks RAJI (human MHCII) cells on HEK293-hLAG3
# pIC50 is unitless: minus log10 of the molar concentration; print number only

## Input Supply reported pIC50 belonging to this binder: H4H14813N (antibody, human IgG4, V domains shown, H4H = human IgG4 Fc with S108P hinge mutation) VH: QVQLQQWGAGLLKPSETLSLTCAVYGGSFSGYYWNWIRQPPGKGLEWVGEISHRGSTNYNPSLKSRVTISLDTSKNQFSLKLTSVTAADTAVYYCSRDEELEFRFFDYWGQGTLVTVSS VL: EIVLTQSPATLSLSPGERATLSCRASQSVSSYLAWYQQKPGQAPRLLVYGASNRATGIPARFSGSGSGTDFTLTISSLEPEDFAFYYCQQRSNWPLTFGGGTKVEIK
## Output 7.77

## Input Supply reported pIC50 belonging to this binder: H4H15479P (antibody, human IgG4, V domains shown) VH: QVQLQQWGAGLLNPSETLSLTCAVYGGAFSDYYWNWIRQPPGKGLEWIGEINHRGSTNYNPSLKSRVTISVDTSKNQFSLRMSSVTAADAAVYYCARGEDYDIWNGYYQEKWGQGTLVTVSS VL: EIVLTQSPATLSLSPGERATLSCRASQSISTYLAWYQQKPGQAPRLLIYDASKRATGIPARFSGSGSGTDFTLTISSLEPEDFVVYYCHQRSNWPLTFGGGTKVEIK
## Output 7.51

## Input Supply reported pIC50 belonging to this binder: H4H17819P (antibody, human IgG4, V domains shown, H4H = human IgG4 Fc with S108P hinge mutation) VH: EVQLVESGGGLVQPGGSLRLSCVASGFTFSLYAMTWVRQVPGKGLEWVSTISGSGGGTYYTDSVKGRFTISRDNSKNTLYLQMNSLRADDTAVFYCTKESTTGTYSYFYGMDVWGQGTTVTVSS VL: DIQMTQSPSSLSASVGDRVTITCRASQTISSYLNWYQQKPGKAPKLLIYAASSLQSGVPSRFSGSGSGTDFTLTLSGLQPEDFATYYCQQSYSTPLTFGGGTKVEIK
## Output 7.77

## Input Supply reported pIC50 belonging to this binder: H4sH15479P (antibody, V domains shown) VH: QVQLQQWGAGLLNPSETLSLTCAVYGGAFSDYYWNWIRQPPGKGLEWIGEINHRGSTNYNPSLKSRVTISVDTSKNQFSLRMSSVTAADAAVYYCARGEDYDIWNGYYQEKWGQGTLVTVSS VL: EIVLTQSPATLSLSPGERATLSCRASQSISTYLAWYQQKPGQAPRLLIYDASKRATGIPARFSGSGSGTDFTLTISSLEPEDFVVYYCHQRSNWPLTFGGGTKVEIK
## Output 8.02

## Input Supply reported pIC50 belonging to this binder: H4H17823P (antibody, human IgG4, V domains shown, H4H = human IgG4 Fc with S108P hinge mutation) VH: EVQLLESGGGLVQPGGSLRLSCAASGFTFRSYAMSWVRQAPGKGLEWVSVISGGGGRTYYTDSVKGRFTISRDNSKSMLYLQMNSLRAEDTAIYYCAKERVTGIDHYYYGVDVWGQGTTVTVSS VL: DIQMTQSPSSLSASVGDRVTITCRASQSISSYLNWYQQKPGKAPKLLIYATSSLQSGVPSRFSGSASGTDFTLAISSLQPEDFATYYCQQSYTTPLTFGGGTKVEIK
## Output 8.07

## Input Supply reported pIC50 belonging to this binder: H4sH14813N (antibody, human IgG4 S228P, kappa, V domains shown, H4sH = modified human IgG4 Fc) VH: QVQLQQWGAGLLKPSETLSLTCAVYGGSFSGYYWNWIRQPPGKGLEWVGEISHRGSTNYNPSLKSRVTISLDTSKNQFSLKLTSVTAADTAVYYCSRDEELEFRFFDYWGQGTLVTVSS VL: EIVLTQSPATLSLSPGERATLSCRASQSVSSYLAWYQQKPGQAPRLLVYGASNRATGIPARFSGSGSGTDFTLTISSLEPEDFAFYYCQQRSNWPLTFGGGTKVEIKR
## Output 8.22

## Input Supply reported pIC50 belonging to this binder: H4H15483P (antibody, human IgG4, V domains shown, H4H = human IgG4 Fc with S108P hinge mutation) VH: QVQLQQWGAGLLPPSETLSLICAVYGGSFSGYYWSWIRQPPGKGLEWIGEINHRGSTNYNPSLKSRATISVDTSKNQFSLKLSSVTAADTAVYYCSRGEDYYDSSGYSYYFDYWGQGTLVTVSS VL: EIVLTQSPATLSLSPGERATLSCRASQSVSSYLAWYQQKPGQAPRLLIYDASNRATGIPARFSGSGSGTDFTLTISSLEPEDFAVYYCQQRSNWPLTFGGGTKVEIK
## Output 7.72
